Experiment: yeast display, Sf9 membrane polyspecificity reagent, FACS + sequencing; frameworks hold sequencing errors
READOUT TYPE: polyreactivity (PSR sort gate)

QVQLVESGGCLVQAGGSLRLSCAASGSIYGYTMGWYRQAPGKERELVAAINRRADRTYYADSVKGRFTISRDNAKNTVYLQMNSLKPEDTAVYYCATLQGDSSSQYDYWGHGTQVTVSS :: high polyreactivity
QVQLVESGGGLVQAGGSLRLSCAASGLIFYKYAMGWYRQAPGKERELVAAIRWSGGSTYYADSVKGRFTISRDNAKNTVYLQMNSLKPEDTAVYYCAALSWNHQYEYWGQGTQVTVSS :: high polyreactivity
QVQLVESGGGLVQAGGSLRLSCAASGSTFTNNGMGWYRQAPGKERELVATISWDGDSTYYADSVKGRFTISRDNAKNTVYLQMNSLKPEDTAVYYCAADEWGSDSALNFEYWGQGTQVTVSS :: low polyreactivity
QVQLVESGGGLVQAGGSLRLSCAASGFTFVVYDMGWYRQAPGKESELVAVINNSGGSTYYADSVKGRFTISRDNAKNTVSLQMNSLKPEDTAVYYCATRTPVWVNTESDYWGQGTQVTVSS :: low polyreactivity
QVQLVESGGGLVQAGGSLRLSCAASGGTFSPYAMGWYRQAPGKERELVAVIRSDVTTNYADSVKGRFTISRDNAKNTVYLQMNSLKPEDTAVYYCNVERHRVWDYQWREEDDYWGQGTQVTVSS :: low polyreactivity

* * *

Experiment: yeast display, Sf9 membrane polyspecificity reagent, FACS + sequencing; frameworks hold sequencing errors
READOUT TYPE: polyreactivity (PSR sort gate)

QVQHVESGGGLVQAGVSLRLSCAASGSIFVYYAMGWYRQAPGKERELVASISESDGSTSYADSVKGRFTISRDNAMNTVYLQMNSLKPEDTAVSYCAADPYFYWYSPSFDYWGQGTQVTVSS :: low polyreactivity
QVQLVESGGGLVQAGGSLRLSSAASGFIFPAYAMGWYRQAPGKDRELVAAISKSGGRTYYADSVKGRFTISRDNAKNTVYLQMNSLKPEDTAVYYCNKYRYPREQYTWKYAWGYDYWGQGTQVTVSS :: high polyreactivity
QDQHVESGGGLVQEGGSLRLSCAASGSTFWPYAMGWSRQAPGKERELVARINSGGNTNYADSVKGLFTISRDNAKNTVYLQMNSLKPEDTAVYYCAVRSLYEPRVYYRCVVGDGNYWGQGTQVTVSS :: low polyreactivity
QVQLVESGGGLFQAGGSLRLICAASGSTFRFYAMGWYRQAPAKERELVAVIRSTGSTYYADSVKGRFTISRDNAKNTVYLQMYSLNPDDTAVYYCAAQNAWWSNGRSYDYWGQGTQVTVSS :: low polyreactivity
QVQLVESGGGLVQAGGSLRLSCAASGRIFKVYTMGWYRQAPGKERELVATITRSGTSTYYADSVKGRFTISRDIAKNTVYLQMNSLKPEDTAVYYCARLVGYKFSYDYWGQGTQVTVSS :: high polyreactivity

* * *

Test: yeast display, Sf9 membrane polyspecificity reagent, FACS + sequencing; frameworks hold sequencing errors
READOUT TYPE: polyreactivity (PSR sort gate)

QVQLVESGGGLVQARGSLRLSCPASGITFARYAMEWSRQAPGKERELVAAISYGGGSTYYADSVKGRFTISRDNAKNTVYLQMNSLKPEDTSVYYCNNVPRKSYGYWGQGTQVTVSS :: high polyreactivity
QVQLEESGGGLVQAGGSLLLICADSGSILGGNAMGWYRHAPGKERQMVDAITFSGGGTYYADSVKGRFTLSRDNAKNTVYLQMNSLKPEDTAVYYCAADKDGYTYEFDYWGQGTQVTVSS :: low polyreactivity
QVQLVESGGGLVQAGGSLRLSCAASGRTFPQYAMGWYRQAPGKERELVASITSRSGRTYYADSVKGRFTISRDNAKNTVYLQMNSLKPEDTAVYYCNAVSSWWYMNYWGQGTQVTVSS :: high polyreactivity
QVQLVESGGGLVQAGRSLRLICAASGRTFVYYAMGWYRPAPGKERELVAAITWSGGRTYYADSVKGRFTISRDNAKNTVYLQMNSLKQEDTAVYYCNRDQWPWESGYAYNYWGQGTQVTVSS :: low polyreactivity
QVQLVESGGGLVQAGGSLRLSCAASGSTFVTNVMGSYRQAPGKERELVAAISYSGGNTYYEDSVKGRFTISRDNSKNTVYLQRNSLNPEDTAVYYCDASYKQFKKMGYWGQGTQVTVSS :: high polyreactivity
